System: NCI/ADR-RES ovarian
Assay: NCI tumour cell line growth inhibition, 48 h
Give measured TGI for each item. Keep answers brief.

## Task What TGI value was documented for this compound, `COC(=O)c1c(O)c([N+](=O)[O-])cc2c1c1c(n2Cc2ccccc2)C(=O)c2ccccc2C1=O` ?
## Result 68.5 µM

## Task Report TGI for `Cc1oc(N)c(S(=O)(=O)c2ccc(Cl)cc2)c1C` please.
## Result > 100 µM

## Task Would you kindly share the measured TGI for `Cc1nc([C@H]2CC[C@H]3[C@@H]4CCC5=CC(=O)CC[C@]5(C)[C@H]4CC[C@]23C)cs1` ?
## Result > 100 µM

## Task Find the recorded TGI belonging to `CN1C(=O)[C@@H](NC(=O)[C@H](CCC(F)(F)F)[C@H](CCC(F)(F)F)C(N)=O)N=C(c2ccccc2)c2ccccc21` and report it.
## Result > 100 µM

###

System: 786-0 renal
Assay: NCI tumour cell line growth inhibition, 48 h
Measured Metric: TGI

## Task Which TGI reading was recorded for the molecule `CN(/N=C/c1cccc2cccnc12)c1ccc([N+](=O)[O-])cc1` ?
## Result > 100 µM

## Task Dear colleague, I am looking for the recorded TGI of the following molecule: `Cc1nc(CN2CCCCC2)c(O)c(=O)[nH]1`
## Result > 100 µM

## Task Requested read-out: TGI. Entry: `Cc1nccc2c3ccc(OCc4cn(-c5ccc(Cl)cc5)nn4)cc3n(CCCc3ccccc3)c12`
## Result 1.39 µM

## Task For `CC(=O)NNc1nc(C)c(C(/C=C/c2ccc([N+](=O)[O-])cc2)=N/NC(N)=S)s1` , what is its reported TGI?
## Result > 100 µM

## Task Param item = `COC(=O)CCC(=O)Nc1cc(Cl)ccc1Cl` ; retrieve measured TGI.
## Result > 100 µM

## Task Can you share its TGI? I mean this molecule: `CCOC(=O)c1sc(N/N=C2\NC(=O)/C(=C/c3ccc([N+](=O)[O-])cc3)S2)nc1C`
## Result 33.7 µM

## Task Could you tell me which TGI is on file for `Cn1c(-c2cccs2)cc(-c2cccs2)c1-c1ccco1` ?
## Result > 100 µM

## Task # TGI lookup, item `CN(C)C/C=C/C(=O)Nc1cc2c(Nc3ccc(F)c(Cl)c3F)ncnc2cc1OCCOC(F)F`
## Result 3.56 µM

## Task Any idea what its TGI is? The molecule is `O=C(Cc1nc2ccccc2s1)C(=O)Nc1cccc(Cl)c1`
## Result > 100 µM

## Task For OC(COc1ccc(F)cc1)Cn1cnc2c(Cl)ncnc21 (stereo not given) , what is its reported TGI?
## Result > 100 µM

## Task Requested field: TGI. Item: `CC(=O)O[C@@H]1[C@@H](O)C2=C3[C@]4(C)[C@@H]1C(C)(C)C(=O)C[C@@H]4[C@]3(O)[C@H](OC(C)=O)[C@@]1(C[C@@H]1C)C2=O`
## Result 32.4 µM

## Task If you can, please state the reported TGI value of `COc1ccc(C(=O)/C=C/c2cc3c(c(OC)c2)OCC(=O)N3)cc1` .
## Result > 100 µM

## Task Given the entry `CN(C)CCNC(=O)c1cccc2c(Nc3ccc(S(N)(=O)=O)cc3)c3ccccc3nc12` , report its measured TGI.
## Result 4.92 µM

## Task State the recorded TGI for this entry: `Cc1ccccc1C(=O)Oc1ccc(O)cc1`
## Result > 100 µM

## Task Please give the measured TGI for this molecule: `N#CSc1c[nH]c2ccc(/C=C/C(=O)/C=C(/C=C/c3ccc4[nH]cc(SC#N)c4c3)OB(F)F)cc12`
## Result 3.44 µM

## Task Which measured TGI value corresponds to `CC(C)CC(=O)Nc1n[nH]c2c1CN(C(=O)C1CCN(C)CC1)C2(C)C` ?
## Result > 10 µM

## Task What does the record list as TGI for `CC1(C)OB(O)OC1(C)C` ?
## Result > 100 µM

## Task What value of TGI has been reported for the following molecule? `CCN1C[C@]2(C)CC[C@H](OC)C34C1C([C@H](OC(C)=O)[C@@H]32)[C@@]1(OC)C[C@H](OC)[C@H]2C[C@@H]4[C@@H]1[C@H]2O`
## Result > 100 µM

## Task Would you kindly share the measured TGI for `COc1cc(Nc2ncc(F)c(Nc3ccc4c(n3)NC(=O)C(C)(C)O4)n2)cc(OC)c1OC` ?
## Result > 100 µM

## Task I am curious: what TGI value has been reported for `O=C(O)CCC/C=C\C[C@H]1C=CC(=O)/C1=C/C[C@@H](O)CCc1cccc(C(F)(F)F)c1` ?
## Result 6.61 µM

## Task Quick one: TGI of CN(C)CC1COC2Cc3ccccc3C1O2 (stereo not given) ?
## Result > 100 µM

## Task Quick check: TGI of `CC1(C)CC(=O)C2=C(C1)NC1=C(C(=O)CC(C)(C)C1)C2c1ccc([N+](=O)[O-])cc1` ?
## Result > 100 µM

## Task Request the reported TGI associated with `Clc1ccc(C2=Nn3c(nnc3-c3cc(Cl)cc(Cl)c3Cl)SC2)cc1`
## Result 38 µM

## Task Reported TGI, molecule `CCOC(=O)Cc1csc2[n+]1C(=O)/C(=C\c1cccc(Cl)c1Cl)S2` : ____
## Result 31.2 µM

## Task For the molecule Nc1ccccc1NC(=O)c1ccc(CCCC(=O)Nc2ccc(C3CC3N)cc2)cc1 (stereo not given) , what TGI is on record?
## Result 39.3 µM

## Task May I ask what TGI has been recorded for C/C1=C/C(C)CC(C)OC(=O)C(C)NC(=O)C(Cc2ccc(O)c(I)c2)N(C)C(=O)C(C)NC(=O)C(C)C1 (stereo not given) ?
## Result 3.79 µM

## Task Entry `Fc1ccc(-c2ncn(C3CCNCC3)c2-c2ccnc(Oc3ccc(F)c(F)c3)n2)cc1` : reported TGI = ?
## Result > 16.2 µM

## Task Data request, read-out TGI, for `O=Cc1ccc(-c2ccc(-c3nc4ccccc4o3)cc2)s1`
## Result > 100 µM

## Task Form field: reported TGI of Cc1ccc(NC(=O)C(=O)CC(=O)C2CCOC2=O)c(C)c1 (stereo not given)
## Result > 100 µM

## Task Using the record for `O=C1NC(N2CCCCC2)=N/C1=C\c1cccs1` , report its TGI.
## Result > 100 µM

## Task What does the data say about its TGI? Entry: `CCCCSC1=N/C(=C\c2ccc(N(C)C)cc2)C(NN)=N1`
## Result > 100 µM

## Task Entry `O=c1cc(-c2ccccc2)oc2cc(O)cc(O)c12` has what TGI?
## Result 60.1 µM

## Task For the molecule `COc1cc(O)c2c(c1)C(=O)C=C(Cl)C2=O` , what TGI is on record?
## Result > 100 µM

## Task // TGI lookup, key: CC=CCOc1cc(NC(=S)OC(C)C)ccc1Cl (mixture of isomers)
## Result 31.6 µM

## Task What TGI value was documented for this molecule, `O=[N+]([O-])c1ccc(/C=N/Nc2nnc3c4ccccc4c4ncccc4c3n2)o1` ?
## Result > 10 µM

###

System: SK-MEL-5 melanoma
Test: NCI tumour cell line growth inhibition, 48 h
Measured Metric: TGI

## Task Report TGI for `O=C(O)CS` tested on SK-MEL-5 melanoma.
## Result > 100 µM

## Task Kindly state the measured TGI obtained for `CCOC(=O)C(C(=O)c1ccccc1C(=O)OC)=P(c1ccccc1)(c1ccccc1)c1ccccc1` with SK-MEL-5 melanoma.
## Result > 10 µM

## Task Recall the recorded TGI for `CC(C)OP(=O)(OC(C)C)/C(C#N)=C/c1ccco1` with SK-MEL-5 melanoma and state it.
## Result > 100 µM

## Task Requested read-out TGI, target or system SK-MEL-5 melanoma, entry CN1C(c2ccccc2)CS(=O)(=O)CS1(=O)=O (stereo unspecified)
## Result > 100 µM

## Task Lab note: need TGI for Nc1ncc(Cl)c(NCC2(CO)CC(CCc3ccccc3)C2)n1 (stereo unspecified) on SK-MEL-5 melanoma, anyone have it?
## Result > 100 µM

## Task API: value(readout=TGI, system=SK-MEL-5 melanoma) for record CCN(CC)c1ccc2c(c1)Oc1nc(N)c(C#N)c(N)c1C2Sc1ccc(OC)cc1 (stereo unspecified)
## Result 2.9 µM

## Task What is its TGI for SK-MEL-5 melanoma? Entry: `CCN1C[C@]2(C)CC[C@H](OC)C34C1C([C@H](OC(C)=O)[C@@H]32)[C@@]1(OC)C[C@H](OC)[C@H]2C[C@@H]4[C@@H]1[C@H]2O`
## Result > 100 µM

## Task Checklist item: TGI tested on SK-MEL-5 melanoma, entry `Cc1cc2cn3c4ccc(O)cc4[nH]c(=O)c3c2cc1C` , value?
## Result 0.231 µM

## Task # query: TGI | item `CCN(CC)CCCNc1ncc(C)c2[nH]c3ccncc3c12` | system: SK-MEL-5 melanoma
## Result 28.1 µM

## Task For SK-MEL-5 melanoma, provide TGI of `Cc1nc(C(N)=S)sc1C(/C=C/c1ccc(Cl)c(Cl)c1)=N/NC(C)(C)C` please.
## Result > 100 µM

## Task Notebook entry, SK-MEL-5 melanoma assay: TGI of Cc1nn(C(=O)c2ccncc2)c2c1C(c1ccccc1)SC(N)=N2 (stereo unspecified) = ?
## Result > 10 µM
